- Tested on: PfAP2-HC AP2 domain (GST-tagged)
- assay_details: gcPBM binding intensity (ln(normalized median fluorescence intensity)); higher = stronger DNA binding
The full ranking holds about 25,000 sequences; the median of “ln(normalized median fluorescence intensity)” is about 9.7, and the highest 2% start at about 11. The sample holds the highest values, similar sequences and a random draw of the others, so the mix is not that of the screen.
readout: gcPBM binding intensity (ln)
Reply with the value as a number alone.

Asked: Return value of gcPBM binding intensity (ln) for input GTGTACAAAATATGGTAATAAAGTAGTTACATGAAT [CACACA_negctrl_site1775] , no commentary.
Given back: 9.86

Asked: Please indicate gcPBM binding intensity (ln) recorded for GTAAGTTTGAATACACGTACAAATTTATTAAAGTCC [XGTACX_site6722]
Given back: 9.72

Asked: Assign gcPBM binding intensity (ln) to the following record: AGCACATTATTCAAAAGTACAAATAGGTATTGTATA [XGTACX_site6107]
Given back: 9.59

Asked: Please report the measured gcPBM binding intensity (ln) for TATACATACCCACCCACACACAAAAAAAAAAAAAAA [CACACA_site4632]
Given back: 10.2

Asked: Let me know recorded gcPBM binding intensity (ln) for TATTTAAAATAATGTGCAAAAGAATAAATAAATAAA [TGCATGCA_negctrl_site194] , thanks.
Given back: 9.74

Asked: Supply recorded gcPBM binding intensity (ln) for ATACATATGTATATTTGTACATATTAGACAATCTTA [XGTACX_site6706] here.
Given back: 9.37

Asked: Read the entry AAGGTAAACGGACACACACACATACAAAAAAAAAAA [CACACA_site5961] and write its reported gcPBM binding intensity (ln).
Given back: 11.3

Asked: Check the records and state gcPBM binding intensity (ln) for AAAAAATATGCATATACACACATATGTATAAATAAC [CACACA_site7090]
Given back: 10.1

Asked: Identify gcPBM binding intensity (ln) associated with the sequence ATATAATGAATTATTAGAAAATAAAATGAATAAAGT [CACACA_negctrl_site690]
Given back: 9.87

* * *

Answer each item with its documented gcPBM binding intensity (ln).
- System: PfAP2-HC AP2 domain (GST-tagged)
- assay_details: gcPBM binding intensity (ln(normalized median fluorescence intensity)); higher = stronger DNA binding
In all, about 25,000 sequences were measured (“ln(normalized median fluorescence intensity)”: median about 9.7, highest 2% from about 11 on). The entries come from a sample that favours the highest values as a whole.
API note: the answer field is a bare number with no unit suffix.

Asked: Return value of gcPBM binding intensity (ln) for input ATAAGAAAAAGACACACACACAAAAAAAAAAAAAAA [CACACA_site2828] , no commentary.
Given back: 10.2

Asked: Give the measured gcPBM binding intensity (ln) for CACCCATACACATACAAACACACATTCTATATATAT [CACACA_site1600]
Given back: 10.1

Asked: Tell us which gcPBM binding intensity (ln) value is on record for AAAAAAAAAAAGCACACACACATATGAGTATATATA [CACACA_site4683]
Given back: 10.3

Asked: Identify the reported gcPBM binding intensity (ln) for the following entry. CATACATACAAACACACACACACACCCATATATATA [CACACA_site2918]
Given back: 11.1

Asked: Supply recorded gcPBM binding intensity (ln) for AAAAAAAAAAAGCACACACACATATGCGTATATATA [CACACA_site954] here.
Given back: 10.9
